Hi there, I'd appreciate the recorded melting point for every entry that follows.

Q) What does the record list as melting point for Cc1cnc2nc(-c3cc4ccc(O[C@@H]5CCNC5)cc4oc3=O)cn2c1.Cl.Cl ?
A) 255 to 258 °C

Q) What does the record list as melting point for C[C@H]1CN(c2ccc3cc(-c4ccc5c(c4)OCO5)c(=O)oc3c2)CCN1 ?
A) 134 to 136 °C

Q) What does the record list as melting point for Cc1cn2cc(-c3cc4ccc(N5CC(CN(C)C)C5)cc4oc3=O)nc2c(C)n1 ?
A) 150 to 152 °C

Q) What does the record list as melting point for O=c1oc2cc(N3CCNCC3)ccc2cc1-c1cccc(F)n1 ?
A) 196 to 198 °C

Q) What does the record list as melting point for Cc1cn2cc(-c3cc4ccc(N[C@@H]5C[C@H]6CCC[C@@H](C5)N6C)cc4oc3=O)nc2c(C)n1 ?
A) 279 to 287 °C

Q) What does the record list as melting point for Cc1cn2cc(-c3cc4ccc(N5CCCNCC5)cc4oc3=O)nc2c(C)n1 ?
A) 188 to 190 °C

Q) What does the record list as melting point for COc1cc(OC)cc(-c2cc3ccc(N4CCN[C@H](C)C4)cc3oc2=O)c1 ?
A) 148 to 150 °C

Q) What does the record list as melting point for CCN1CCN(c2ccc3cc(-c4cc5cc(C)nc(C)c5o4)c(=O)oc3c2)CC1 ?
A) 196 to 198 °C

###

Measurement kind: melting point

Q) What does the record list as melting point for Cc1cn2cc(-c3cc4ccc(N5CCN(C6COC6)CC5)cc4oc3=O)nc2cn1 [Compound 839] ?
A) 273 to 276 °C

Q) What does the record list as melting point for Cc1cc(Cl)c2nc(-c3cc4ccc(N5C[C@@H](C)N[C@@H](C)C5)cc4oc3=O)cn2c1 [Compound 342] ?
A) 258 to 263 °C

Q) What does the record list as melting point for CCN(CC)C1CCN(c2ccc3cc(-c4cn5cc(C)nc(C)c5n4)c(=O)oc3c2)CC1 [Compound 922] ?
A) 205 to 207 °C

Q) What does the record list as melting point for Cc1ccn2cc(-c3cc4ccc(N5C[C@@H](C)N[C@@H](C)C5)cc4oc3=O)nc2n1 [Compound 225] ?
A) 246 to 252 °C

Q) What does the record list as melting point for Cc1cn2cc(-c3cc4ccc(N5C[C@@H]6CN(C(C)C)C[C@@H]6C5)cc4oc3=O)nc2c(C)n1 [Compound 743] ?
A) 249 to 258 °C

Q) What does the record list as melting point for C[C@@H]1CN(c2ccc3cc(-c4nc5c(Cl)cccc5o4)c(=O)oc3c2)C[C@H](C)N1 [Compound 69] ?
A) 238 to 240 °C

Q) What does the record list as melting point for Cc1cc(F)cn2cc(-c3cc4ccc(N5C[C@@H](C)N[C@@H](C)C5)cc4oc3=O)nc12 [Compound 331] ?
A) 290 to 300 °C

Q) What does the record list as melting point for Cc1ccc2nc(-c3cc4ccc(N5CCNC(C)(C)C5)cc4oc3=O)cn2c1 [Compound 222] ?
A) 177 to 180 °C

Q) What does the record list as melting point for Cc1csc(-c2cc3ccc(N4CCNCC4)cc3oc2=O)c1 [Compound 318] ?
A) 218 to 220 °C

Q) What does the record list as melting point for Cc1c[nH]nc1-c1cc2ccc(N3CCNCC3)cc2oc1=O [Cpd 80] ?
A) 175 to 200 °C (dec.)

Q) What does the record list as melting point for Cc1ccc2nc(-c3cc4ccc(CN5CCC(O)C5)cc4oc3=O)cn2c1 (stereo not shown) [Compound 253] ?
A) 227 to 230 °C

Q) What does the record list as melting point for Cc1cn2cc(-c3cc4ccc(N5C[C@@H](C)N[C@@H](C)C5)cc4oc3=O)cc2cn1 [Compound 584] ?
A) 172 to 174 °C

Q) What does the record list as melting point for Cc1cc(C)c2nc(-c3cc4ccc(N5CCN[C@@H](C)C5)cc4oc3=O)cn2c1 [Compound 425] ?
A) 221 to 226 °C

Q) What does the record list as melting point for CCN(CCO)CCOc1ccc2cc(-c3cn4cc(C)nc(C)c4n3)c(=O)oc2c1 [Compound 938] ?
A) 165 to 168 °C

Q) What does the record list as melting point for CCc1nc(C)cn2cc(-c3cc4ccc(N5CCN(C)CC5)cc4oc3=O)nc12 [Compound 830] ?
A) 210 to 215 °C

Q) What does the record list as melting point for Cc1ccn2cc(-c3cc4ccc(NCCCN(C)C)cc4oc3=O)nc2c1 [Compound 475] ?
A) 165 to 170 °C

Q) What does the record list as melting point for Cc1cn2cc(-c3cc4ccc(N5C[C@@H](C)N(C)[C@@H](C)C5)cc4oc3=O)nc2c(C)n1 [Compound 605] ?
A) 229 to 232 °C

Q) What does the record list as melting point for Cc1nn2cc(-c3cc4ccc(N5CCN(C)CC5)cc4oc3=O)nc2s1 [Compound 442] ?
A) 233 to 236 °C

Q) What does the record list as melting point for CN1CCCN(c2cc(F)c3cc(-c4cc(F)cc(F)c4)c(=O)oc3c2)CC1 [Compound 365] ?
A) 161 to 164 °C

Q) What does the record list as melting point for Cc1cccc2oc(-c3cc4ccc(N5CCN(C)CC5)cc4oc3=O)nc12 [Compound 21] ?
A) 217 to 219 °C

Q) What does the record list as melting point for C[C@H]1CN(c2ccc3cc(-c4nc(C(F)(F)F)cs4)c(=O)oc3c2)CCN1 [Compound 239] ?
A) 234 to 238 °C

Q) What does the record list as melting point for COc1cccn2cc(-c3cc4ccc(N5CCN(C)CC5)cc4oc3=O)nc12 [Compound 403] ?
A) 202 to 205 °C

Q) What does the record list as melting point for O=c1oc2cc(O[C@@H]3CCNC3)ccc2cc1-c1nc2ccccc2s1 [Compound 55] ?
A) 205 to 211 °C

Q) What does the record list as melting point for Cc1ccc2nc(-c3cc4ccc(N5CCCNCC5)cc4oc3=O)cn2c1 [Compound 176] ?
A) 218 to 220 °C

Q) What does the record list as melting point for Cc1nn2cc(-c3cc4ccc(N5CCCN(C)CC5)cc4oc3=O)nc2s1 [Compound 451] ?
A) 191 to 195 °C

Q) What does the record list as melting point for Cc1cn2cc(-c3cc4ccc(OCCN5CCCC5)cc4oc3=O)nc2c(C)n1 [Cpd 918] ?
A) 201 to 203 °C

Q) What does the record list as melting point for Cc1cn2cc(-c3cc4ccc(CCCNC(C)CO)cc4oc3=O)nc2c(C)n1 (stereo not shown) [Compound 881] ?
A) 181 to 184 °C

Q) What does the record list as melting point for Cc1ccc2nc(-c3cc4ccc(N5CCN[C@@H](C)C5)cc4oc3=O)cn2n1 [Compound 624] ?
A) 208 to 212 °C

Q) What does the record list as melting point for COc1cc(-c2cc3ccc(N4CCNCC4)cc3oc2=O)ccc1C [Compound 574] ?
A) 170 to 174 °C

Q) What does the record list as melting point for Cc1cn2cc(-c3cc4ccc(N5CCC(C)(N)CC5)cc4oc3=O)nc2c(C)n1 [Compound 920] ?
A) 190 to 192 °C

Q) What does the record list as melting point for Cc1cn2cc(-c3cc4ccc(OC5CCN(C(C)C)CC5)cc4oc3=O)nc2c(C)n1 [Compound 901] ?
A) 185 to 191 °C

Q) What does the record list as melting point for C[C@@H]1CN(c2ccc3cc(-c4nc5ccccc5o4)c(=O)oc3c2)C[C@H](C)N1 [Compound 23] ?
A) 230 to 232 °C

Q) What does the record list as melting point for CCN1CCN(c2ccc3cc(-c4cc5ccccn5n4)c(=O)oc3c2)CC1 [Compound 194] ?
A) 246 to 248 °C

Q) What does the record list as melting point for CN1CCN(c2ccc3cc(-c4cn5cc(F)cc(F)c5n4)c(=O)oc3c2)CC1 [Compound 522] ?
A) 232 to 238 °C
